Measured values drawn from ChEMBL document CHEMBL1138528 for this set.

- assayRemarks: Bioavailability in rhesus monkey at 1 mg/kg, po and 0.3 mg/kg, iv administered as single dose
- Assay type: ADME, organism-based, Macaca mulatta
- conditionLabel: in vivo
quantityMeasured: bioavailability (%)
I only need the number, in %, no unit after it.

Query: bioavailability; subject: `C[C@@H]1NC(c2cc(C#N)ccn2)=N[C@@]1(c1ccc(F)cc1)c1ccc(F)nc1`
76

* * *

- target: Voltage-gated inwardly rectifying potassium channel KCNH2 (Homo sapiens);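 further: radioligand displacement binding to human ERG expressed in HEK293 cells, using a [35S]-labelled spiro-benzopyran-piperidine methanesulfonamide as the displaced ligand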
- Sequence (Q12809 whole entry): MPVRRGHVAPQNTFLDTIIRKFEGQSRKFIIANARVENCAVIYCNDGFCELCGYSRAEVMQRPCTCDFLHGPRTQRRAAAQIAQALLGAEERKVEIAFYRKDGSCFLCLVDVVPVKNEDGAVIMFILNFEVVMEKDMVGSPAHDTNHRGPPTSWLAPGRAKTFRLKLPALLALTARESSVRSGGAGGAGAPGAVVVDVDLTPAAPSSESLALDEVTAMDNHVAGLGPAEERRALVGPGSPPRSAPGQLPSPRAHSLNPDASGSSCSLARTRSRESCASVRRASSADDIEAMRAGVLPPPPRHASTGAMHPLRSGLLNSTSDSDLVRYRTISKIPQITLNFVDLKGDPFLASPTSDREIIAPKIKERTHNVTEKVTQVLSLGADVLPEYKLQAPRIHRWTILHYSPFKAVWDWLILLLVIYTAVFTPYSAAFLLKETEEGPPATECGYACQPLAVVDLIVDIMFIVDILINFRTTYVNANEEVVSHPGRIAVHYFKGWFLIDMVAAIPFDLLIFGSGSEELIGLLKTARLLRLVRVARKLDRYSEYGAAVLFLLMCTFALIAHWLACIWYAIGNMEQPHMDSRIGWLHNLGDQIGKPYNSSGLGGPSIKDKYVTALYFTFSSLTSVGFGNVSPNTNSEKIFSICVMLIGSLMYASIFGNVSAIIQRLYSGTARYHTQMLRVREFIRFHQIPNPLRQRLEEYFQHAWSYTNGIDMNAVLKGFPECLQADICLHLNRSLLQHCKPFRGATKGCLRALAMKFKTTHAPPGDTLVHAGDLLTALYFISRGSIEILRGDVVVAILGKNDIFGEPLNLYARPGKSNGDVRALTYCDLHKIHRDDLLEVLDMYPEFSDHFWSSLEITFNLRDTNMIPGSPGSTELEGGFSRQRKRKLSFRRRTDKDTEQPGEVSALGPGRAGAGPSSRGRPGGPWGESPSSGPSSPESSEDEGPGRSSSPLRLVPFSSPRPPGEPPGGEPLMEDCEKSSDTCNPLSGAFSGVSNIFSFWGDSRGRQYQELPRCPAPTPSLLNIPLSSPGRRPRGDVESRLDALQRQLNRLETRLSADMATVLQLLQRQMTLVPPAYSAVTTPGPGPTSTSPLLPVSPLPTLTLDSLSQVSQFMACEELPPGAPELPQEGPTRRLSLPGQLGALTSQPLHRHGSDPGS
quantityMeasured: IC50 (µM)
I only need the number, in µM, no unit after it.

Query: IC50; subject: `C[C@@H]1NC(c2cccc(C#N)n2)=N[C@@]1(c1ccc(F)cc1)c1ccc(F)nc1`
6.93

Query: IC50; subject: `CC[C@@H]1NC(c2cc(C#N)ccn2)=NC1(c1ccc(F)cc1)c1ccc(F)cc1`
0.49

Query: IC50; subject: `CCC[C@@H]1NC(c2cc(C#N)ccn2)=NC1(c1ccc(F)cc1)c1ccc(F)cc1`
0.49

Query: IC50; subject: `Fc1ccc(C2(c3ccc(F)cc3)CNC(c3cnccn3)=N2)cc1`
3.4

Query: IC50; subject: `N#Cc1ccnc(C2=NC(c3ccc(F)cc3)(c3ccc(F)cc3)[C@H](CO)N2)c1`
6.1

Query: IC50; subject: `N#Cc1ccnc(C2=NC(c3ccc(F)cc3)(c3ccc(F)cc3)CN2)c1`
0.101
